The next entries give measured Ki for DDB1ΔB-CRBN (Homo sapiens (Human), UniProt Q96SW2).
Answers are plain numbers, in nM.

Examples with their reported Ki follow.
>  <molecule>
O=C1CCC(N2Cc3c(NC(=O)CNc4ccnc(N5CCC[C@@H]5CO)n4)cccc3C2=O)C(=O)N1 (stereo partly shown)

>  <measuredQuantity>
Ki

>  <measuredResult>
440

$$$$
>  <molecule>
O=C1CCC(N2Cc3c(NC(=O)CNc4ccnc(N5CCN(c6cccc(C(F)(F)F)c6)CC5)n4)cccc3C2=O)C(=O)N1 (stereo not shown)

>  <measuredQuantity>
Ki

>  <measuredResult>
130

$$$$
>  <molecule>
O=C1CCC(N2Cc3c(NC(=O)CNc4ccnc(N5CCC[C@H]5CO)n4)cccc3C2=O)C(=O)N1 (stereo partly shown)

>  <measuredQuantity>
Ki

>  <measuredResult>
2400

$$$$

Input: Consider the molecule shown here: O=C1CCC(N2Cc3c(NC(=O)CNc4ccnc(NCc5ccc6c(c5)OCO6)n4)cccc3C2=O)C(=O)N1 (stereo not shown) What is its recorded Ki?
Output: 13600
